target: MMP-9 (Homo sapiens)
Sequence (P14780 94-707, species assumed): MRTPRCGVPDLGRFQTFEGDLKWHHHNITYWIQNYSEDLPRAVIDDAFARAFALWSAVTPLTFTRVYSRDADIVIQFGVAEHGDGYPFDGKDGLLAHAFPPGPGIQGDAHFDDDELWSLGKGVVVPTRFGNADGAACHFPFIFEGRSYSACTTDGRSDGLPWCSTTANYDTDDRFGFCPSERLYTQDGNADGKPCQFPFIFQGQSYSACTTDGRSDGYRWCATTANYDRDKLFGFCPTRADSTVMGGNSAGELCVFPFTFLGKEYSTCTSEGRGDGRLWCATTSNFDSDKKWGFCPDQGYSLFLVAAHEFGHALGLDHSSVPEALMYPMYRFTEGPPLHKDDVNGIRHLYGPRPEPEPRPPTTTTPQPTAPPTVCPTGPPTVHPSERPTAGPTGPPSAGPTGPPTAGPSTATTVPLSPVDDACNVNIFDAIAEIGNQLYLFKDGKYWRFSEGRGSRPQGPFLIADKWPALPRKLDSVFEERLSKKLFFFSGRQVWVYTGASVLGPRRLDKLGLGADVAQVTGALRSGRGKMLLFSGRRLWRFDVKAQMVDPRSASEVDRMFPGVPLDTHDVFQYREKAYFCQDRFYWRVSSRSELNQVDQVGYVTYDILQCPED
The following compounds are shown together with reported IC50 values.
# output: bare number, implied unit µM

CCCCCCCCN(O)C(=O)Cc1ccc(O)c(OC)c1 [Compound 10b] :: 68
CCCCCCCCCCCCCCCCOC(=O)N(O)Cc1ccc(O)c(OC)c1 [Compound 4a] :: 120

Attention now turns to another entry.
Problem: Param item = CCCCCCCCC(CCCCCC)C(=O)N(O)Cc1ccc(O)c(OC)c1 (stereo not drawn) [Compound 5c] ; retrieve measured IC50.
Result: 99

---

target: human recombinant FAAH (Homo sapiens, UniProt O00519)
Sequence (O00519 whole entry): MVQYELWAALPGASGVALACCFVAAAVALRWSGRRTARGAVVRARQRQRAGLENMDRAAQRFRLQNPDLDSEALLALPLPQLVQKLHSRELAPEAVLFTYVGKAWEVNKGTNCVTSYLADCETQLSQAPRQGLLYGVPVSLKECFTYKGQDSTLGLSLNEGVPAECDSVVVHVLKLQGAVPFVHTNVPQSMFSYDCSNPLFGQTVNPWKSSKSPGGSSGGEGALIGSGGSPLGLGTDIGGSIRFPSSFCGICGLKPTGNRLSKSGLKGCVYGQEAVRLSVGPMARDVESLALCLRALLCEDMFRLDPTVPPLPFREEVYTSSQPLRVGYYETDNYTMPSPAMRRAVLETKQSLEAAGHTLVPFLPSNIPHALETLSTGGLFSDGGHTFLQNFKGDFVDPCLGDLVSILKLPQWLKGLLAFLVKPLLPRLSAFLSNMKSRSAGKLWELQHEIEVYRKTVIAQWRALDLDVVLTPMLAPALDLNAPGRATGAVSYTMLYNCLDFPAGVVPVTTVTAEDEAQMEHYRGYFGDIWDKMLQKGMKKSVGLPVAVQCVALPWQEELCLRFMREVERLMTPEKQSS
method_notes: biochemical
endpoint_label: pIC50
The value called pIC50 is obtained by taking minus log10 of the concentration in mol/L.

Sample records with pIC50:
CCCCCCCC/C=C\CCCCCCCC(=O)N(O)Cc1ccc(O)c(OC)c1 :: 4.15
COc1cc(CN(O)C(=O)Oc2ccccc2)ccc1O :: 5.00
CCCCCCCCOC(=O)N(O)Cc1ccc(O)c(OC)c1 :: 4.14

Problem: Return pIC50 measured with human recombinant FAAH (Homo sapiens, UniProt O00519) given this compound: CCCCCCCN(O)C(=O)Cc1ccc(O)c(OC)c1 [Compound 10a]
Result: 3.72

Problem: Requested read-out pIC50, target or system human recombinant FAAH (Homo sapiens, UniProt O00519), entry "CCCCCCCCCCCCOC(=O)N(O)Cc1ccc(O)c(OC)c1"
Result: 4.17
